Ref: patent US20180071367A1

# EXPERIMENTAL_TARGET: GHS-R (Homo sapiens, UniProt Q92847)
# Sequence (Q92847 whole entry): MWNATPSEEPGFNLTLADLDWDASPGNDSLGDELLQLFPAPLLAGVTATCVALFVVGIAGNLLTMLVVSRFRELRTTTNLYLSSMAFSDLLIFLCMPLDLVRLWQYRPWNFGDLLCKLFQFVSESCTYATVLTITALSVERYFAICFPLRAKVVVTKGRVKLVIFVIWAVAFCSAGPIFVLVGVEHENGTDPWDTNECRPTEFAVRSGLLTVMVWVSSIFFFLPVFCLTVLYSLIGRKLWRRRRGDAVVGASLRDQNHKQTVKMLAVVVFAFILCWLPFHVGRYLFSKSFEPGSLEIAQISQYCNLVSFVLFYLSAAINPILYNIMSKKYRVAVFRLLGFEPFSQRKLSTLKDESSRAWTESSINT
# MEASUREMENT_PROTOCOL: GHS-R antagonist activity, cell based assay (Table 3)
# CONDITION: GHS-R antagonist activity in a cell based assay
ENDPOINT: Ki

QUERY_SMILES: CCN(CC)CCCS(=O)(=O)N[C@H](CCc1ccccc1)c1nc(-c2cncn2C)n[nH]1
TEST_VALUE: < 100 nM
